Tested on: EV71 strain BrCr
method: Antiviral activity on the replication of EV71 strain BrCr in RD cells
Format: cell-based, Enterovirus 71
measurementLabel: SI (selectivity index = CC50/EC50)
Note: the reply should be a number with no unit written.

INPUT: Consider the compound O=C(c1ccc(-c2cccc(-c3cc[nH]n3)c2)o1)N1CCCCC1 [10b] and give its measured SI (selectivity index = CC50/EC50).
OUTPUT: 6.70

INPUT: For the compound shown here, COc1ccc(NC(=O)c2ccc(-c3cccc(-c4cc[nH]n4)c3)o2)cc1 [12b] , give the reported SI (selectivity index = CC50/EC50).
OUTPUT: 8.70

INPUT: # SI (selectivity index = CC50/EC50) lookup, item O=C(c1ccc(-c2cccc(-c3cc[nH]n3)c2)o1)N1CCCC1 [10a]
OUTPUT: 7.30

INPUT: Given the entry O=C(c1ccc(-c2cccc(-c3cc(-c4ccc(C(F)(F)F)cc4)[nH]n3)c2)s1)N1CCOCC1 [21i] , report its measured SI (selectivity index = CC50/EC50).
OUTPUT: 33.4

INPUT: I would be grateful if you could share the reported SI (selectivity index = CC50/EC50) for O=C(c1ccc(-c2cccc(-c3cc[nH]n3)c2)o1)N1CCCCCC1 [10c] .
OUTPUT: 13.1

INPUT: Item under review: COc1ccc(-c2cc(-c3cccc(-c4ccc(C(=O)N5CCOCC5)s4)c3)n[nH]2)cc1 [21h] . Reported SI (selectivity index = CC50/EC50)?
OUTPUT: 10.2

###

method: Lipophilicity by shake-flask method with UV spectrometry
Assay type: physicochemical
protocolConditions: n-octane and water, 25 ± 1 °C, average of three independent experiments
Recorded logD hydrocarbon water for the following compounds
# print the numeric value only

Example results:
| compound | dataValue |
| --- | --- |
| COCCNC(=O)c1ccc(-c2cccc(-c3cc[nH]n3)c2)s1 | 3.15 |
| O=C(c1ccc(-c2cccc(-c3cc[nH]n3)c2)o1)N1CCCCCC1 [10c] | 4.22 |
| O=C(c1ccc(-c2cccc(-c3cc[nH]n3)c2)o1)N1CCCC1 [10a] | 3.42 |

Below: the item to evaluate.
INPUT: Please report the recorded logD hydrocarbon water for O=C(c1ccc(-c2cccc(-c3cc[nH]n3)c2)o1)N1CCCCC1 [10b] .
OUTPUT: 3.87

###

method: Lipophilicity by shake-flask method with UV spectrometry
Assay type: physicochemical
protocolConditions: n-octane and water, 25 ± 1 °C, average of three independent experiments
measurementLabel: logD hydrocarbon water
Form rule: numeric answer, no unit written next to it.

| molecule | measurementLabel | dataValue |
| --- | --- | --- |
| O=C(c1ccc(-c2cccc(-c3cc(-c4ccccc4)[nH]n3)c2)o1)N1CCOCC1 [21c] | logD hydrocarbon water | 3.92 |
| Cn1c(C(=O)N2CCOCC2)ccc1-c1cccc(-c2cc[nH]n2)c1 [21j] | logD hydrocarbon water | 2.56 |
| O=C(NC1CC1)c1ccc(-c2cccc(-c3cc[nH]n3)c2)o1 [compound 13] | logD hydrocarbon water | 3.25 |
| Cc1cc(-c2cccc(-c3ccc(C(=O)N4CCOCC4)o3)c2)n[nH]1 [21b] | logD hydrocarbon water | 2.87 |

Kindly consider the entry below.
INPUT: Which logD hydrocarbon water is listed for COc1ccc(-c2cc(-c3cccc(-c4ccc(C(=O)N5CCOCC5)s4)c3)n[nH]2)cc1 [21h] ?
OUTPUT: 4.64
